biological target: glucagon receptor (human, UniProt P47871 26-477); experiment: cell-based or functional assay
Sequence (P47871 26-477): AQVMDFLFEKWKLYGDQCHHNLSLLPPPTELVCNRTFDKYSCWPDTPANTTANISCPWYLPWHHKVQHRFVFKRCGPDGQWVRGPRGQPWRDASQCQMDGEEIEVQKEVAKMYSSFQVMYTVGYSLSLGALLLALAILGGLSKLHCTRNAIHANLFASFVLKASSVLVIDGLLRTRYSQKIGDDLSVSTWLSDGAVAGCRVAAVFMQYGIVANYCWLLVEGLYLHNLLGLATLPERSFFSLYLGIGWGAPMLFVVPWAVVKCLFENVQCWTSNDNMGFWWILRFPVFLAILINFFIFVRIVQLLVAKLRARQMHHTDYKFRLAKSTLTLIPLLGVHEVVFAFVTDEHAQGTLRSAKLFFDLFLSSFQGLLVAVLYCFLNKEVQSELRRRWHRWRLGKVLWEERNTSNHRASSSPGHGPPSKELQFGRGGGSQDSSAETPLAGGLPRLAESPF
*1 amine or outer side, *2 acyl side, *3 side chain or, on linkers, in order; H or OH if unused. Where no end group is shown, it is not given here. Side-chain parts run from the residue outwards. The star is where a group is joined. C18 diacid = O=C(O)CCCCCCCCCCCCCCCCC(=O)*; C16 diacid = O=C(O)CCCCCCCCCCCCCCC(=O)*; γGlu = O=C(O)[C@H](CCC(=O)[*:2])N[*:1]; AEEA = NCCOCCOCC(=O)O
measure name: Assay (I) Glucagon [EC50] (nM)
# number only, unit nM dropped from output

Solved cases (2 shown):
HSQGTFTSDYSKYLDIRRAQDFVK([γGlu-γGlu-AEEA-AEEA-γGlu-C18 diacid])WLLNT
0.081
HSQGTFTSDYSRYLDLRRAQDFVK([AEEA-AEEA-γGlu-γGlu-γGlu-C18 diacid])WLLST
0.1

# input for lookup
# get_value(readout='Assay (I) Glucagon [EC50]', item= HSQGTFTSDYSRYLESRRAQEFVK([γGlu-γGlu-AEEA-AEEA-γGlu-C16 diacid])WLLST ) 0.072

These measurements were taken from patent US20130079278A1.
